Tested on: MT4
assay-overview: Inhibitory concentration against HIV-IIIB strain in MT-4 cells
Assay type: functional, cell-based
conditions: Homo sapiens
measurement-type: pEC50
pEC50 field: float, defined as -log10 of concentration (mol/L).

Query: Complete the entry with pEC50 for `Cc1cc(N)cc(C)c1OCC(=O)N[C@@H](Cc1ccccc1)[C@H](O)C(=O)N(Cc1ccccc1)NC(=O)c1cccc(O)c1C`
Result: 9.32

Query: Give the reported value of pEC50 for this record: `Cc1c(O)cccc1C(=O)N[C@@H](Cc1ccccc1)[C@H](O)C(=O)N(Cc1ccccc1)NC(=O)c1cccc(O)c1C`
Result: 8.96

Query: Note down pEC50 recorded for `CSC[C@H](NC(=O)OCc1cccc2cnccc12)C(=O)N[C@@H](Cc1ccccc1)[C@H](O)C(=O)N(Cc1ccccc1)NC(=O)c1cccc(O)c1C`
Result: 9.40

Query: Respond only with pEC50 recorded for `Cc1cccc(C)c1OCC(=O)N[C@@H](Cc1ccccc1)[C@H](O)C(=O)N(Cc1ccccc1)NC(=O)c1cccc(O)c1C`
Result: 8.96

Query: Fill in pEC50 for record `CSC[C@H](NC(=O)OCc1cccc2cnccc12)C(=O)N[C@@H](Cc1ccccc1)[C@H](O)C(=O)N(Cc1ccccc1)NC(=O)COc1c(C)cccc1C`
Result: 8.72

Query: Fill in reported pEC50 for this entry: `Cc1c(O)cccc1C(=O)N[C@@H](Cc1ccccc1)[C@@H](O)C(=O)N(Cc1ccccc1)NC(=O)c1cccc(O)c1C`
Result: 8.80

Query: Return pEC50 for the following compound: `Cc1cccc(C)c1OCC(=O)NN(Cc1ccccc1)C(=O)[C@@H](O)[C@H](Cc1ccccc1)NC(=O)c1cccc(O)c1C`
Result: 8.74

---

subject-of-test: Human immunodeficiency virus type 1 protease (Human immunodeficiency virus 1)
The label is true (1) for Ki below 0.5 nM and false (0) for Ki equal to or exceeding 0.5 nM.

Query: Take the compound `Cc1c(O)cccc1C(=O)N[C@@H](Cc1ccccc1)[C@@H](O)C(=O)N(Cc1ccccc1)NC(=O)c1cccc(O)c1C` and say whether its Ki is less than 0.5 nM.
Result: true (1)

Query: Identify whether the compound `CSC[C@H](NC(=O)OCc1cccc2cnccc12)C(=O)N[C@@H](Cc1ccccc1)[C@H](O)C(=O)N(Cc1ccccc1)NC(=O)c1cccc(O)c1C` records Ki below 0.5 nM.
Result: true (1)

Query: Problem: For the compound `Cc1c(O)cccc1C(=O)N[C@@H](Cc1ccccc1)[C@H](O)C(=O)N(Cc1ccccc1)NC(=O)c1cccc(O)c1C` , is Ki under 0.5 nM?
Result: false (0)

Query: Could you please tell me whether Ki recorded for `Cc1cccc(C)c1OCC(=O)NN(Cc1ccccc1)C(=O)[C@@H](O)[C@H](Cc1ccccc1)NC(=O)c1cccc(O)c1C` is less than 0.5 nM?
Result: false (0)

Query: Find out if reported Ki for `Cc1cccc(C)c1OCC(=O)N[C@@H](Cc1ccccc1)[C@H](O)C(=O)N(Cc1ccccc1)NC(=O)c1cccc(O)c1C` is less than 0.5 nM
Result: false (0)

Query: Lab note: confirm whether the reported Ki for this compound is below 0.5 nM, equality not counting. compound: `Cc1cc(N)cc(C)c1OCC(=O)N[C@@H](Cc1ccccc1)[C@H](O)C(=O)N(Cc1ccccc1)NC(=O)c1cccc(O)c1C`
Result: false (0)

Query: Regarding `CSC[C@H](NC(=O)OCc1cccc2cnccc12)C(=O)N[C@@H](Cc1ccccc1)[C@H](O)C(=O)N(Cc1ccccc1)NC(=O)COc1c(C)cccc1C` , kindly confirm whether its Ki is beneath 0.5 nM.
Result: true (1)
